# target_or_system: T1, recombinant hMCAM-His (human, UniProt P43121 24-559)
# T1 construct: not shown: His tag
# T1 chain: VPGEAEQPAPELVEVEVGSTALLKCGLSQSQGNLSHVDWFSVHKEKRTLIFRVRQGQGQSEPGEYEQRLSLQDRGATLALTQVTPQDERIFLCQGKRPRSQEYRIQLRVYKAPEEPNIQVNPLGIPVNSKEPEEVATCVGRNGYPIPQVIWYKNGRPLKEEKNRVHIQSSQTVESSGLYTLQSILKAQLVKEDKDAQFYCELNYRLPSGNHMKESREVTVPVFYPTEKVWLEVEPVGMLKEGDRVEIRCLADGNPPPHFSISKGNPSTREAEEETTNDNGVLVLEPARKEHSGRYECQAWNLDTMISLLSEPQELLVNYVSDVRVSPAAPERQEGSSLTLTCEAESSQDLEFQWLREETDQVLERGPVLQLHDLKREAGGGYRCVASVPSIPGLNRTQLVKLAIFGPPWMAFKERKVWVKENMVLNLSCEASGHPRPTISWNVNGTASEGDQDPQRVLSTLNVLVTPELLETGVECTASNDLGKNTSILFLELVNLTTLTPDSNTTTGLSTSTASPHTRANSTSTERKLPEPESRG
# method: ForteBio Octet Red, hMCAM-His analyte; Expt. #2; vs rodent 1749
Below: a set of entries, each annotated with reported fold over rodent (Forte affinity).
The reply should be a number in fold, with the unit left off.

Illustrative cases are given below, each with its answer.
| binder | result_units | fold over rodent (Forte affinity) |
| --- | --- | --- |
| chimeric 1749 (antibody, V domains shown) VH: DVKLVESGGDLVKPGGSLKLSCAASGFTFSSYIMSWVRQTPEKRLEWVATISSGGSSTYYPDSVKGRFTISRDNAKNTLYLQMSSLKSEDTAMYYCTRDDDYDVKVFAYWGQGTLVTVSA VL: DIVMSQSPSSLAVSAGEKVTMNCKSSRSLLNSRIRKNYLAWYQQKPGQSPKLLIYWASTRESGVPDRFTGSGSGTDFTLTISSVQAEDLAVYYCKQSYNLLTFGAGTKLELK | fold | 0.79 |
| h1749VH2 + h1749VL2 (antibody, human IgG1, V domains shown, also called humanized 1749 conservative VH and VL) VH: EVQLVESGGGLVQPGGSLRLSCAASGFTFSSYIMSWVRQAPGKRLEWVATISSGGSSTYYPDSVKGRFTISRDNAKNSLYLQMNSLRAEDTAVYYCTRDDDYDVKVFAYWGQGTMVTVSS VL: DIVMTQSPDSLAVSLGERATINCKSSRSLLNSRIRKNYLAWYQQKPGQPPKLLIYWASTRESGVPDRFTGSGSGTDFTLTISSLQAEDVAVYYCKQSYNLLTFGQGTKVEIK | fold | 1.09 |

Record request: fold over rodent (Forte affinity) value, item h1749VH1 + h1749VL1 (antibody, human IgG1, V domains shown, also called humanized 1749 standard VH and VL) VH: EVQLVESGGGLVQPGGSLRLSCAASGFTFSSYIMSWVRQAPGKGLEWVATISSGGSSTYYPDSVKGRFTISRDNAKNSLYLQMNSLRAEDTAVYYCTRDDDYDVKVFAYWGQGTMVTVSS VL: DIVMTQSPDSLAVSLGERATINCKSSRSLLNSRIRKNYLAWYQQKPGQPPKLLIYWASTRESGVPDRFSGSGSGTDFTLTISSLQAEDVAVYYCKQSYNLLTFGQGTKVEIK
2.41

Please report the recorded fold over rodent (Forte affinity) for mouse anti-human MCAM monoclonal antibody clone 1749.1.3 (antibody, V domains shown, mouse hybridoma antibody; also called rodent 1749; murine 1749.1.3 anti-MCAM antibody) VH: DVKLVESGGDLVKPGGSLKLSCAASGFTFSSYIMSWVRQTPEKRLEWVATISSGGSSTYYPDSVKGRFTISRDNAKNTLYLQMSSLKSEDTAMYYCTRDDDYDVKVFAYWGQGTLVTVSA VL: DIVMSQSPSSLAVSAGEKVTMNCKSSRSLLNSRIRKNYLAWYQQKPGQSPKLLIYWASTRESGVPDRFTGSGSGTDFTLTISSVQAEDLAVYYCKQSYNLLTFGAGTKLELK .
1
